Origin of values: patent KR20220134462A

# experimental_target: T1, MCF-7 세포주의 세포막에 발현된 B7-H3 (UniProt Q5ZPR3 29-534)
# T1 construct: whole, on cells; Endogenous B7-H3 of the MCF-7 cell line; also called MCF-7 cell
# T1 sequence (looked up): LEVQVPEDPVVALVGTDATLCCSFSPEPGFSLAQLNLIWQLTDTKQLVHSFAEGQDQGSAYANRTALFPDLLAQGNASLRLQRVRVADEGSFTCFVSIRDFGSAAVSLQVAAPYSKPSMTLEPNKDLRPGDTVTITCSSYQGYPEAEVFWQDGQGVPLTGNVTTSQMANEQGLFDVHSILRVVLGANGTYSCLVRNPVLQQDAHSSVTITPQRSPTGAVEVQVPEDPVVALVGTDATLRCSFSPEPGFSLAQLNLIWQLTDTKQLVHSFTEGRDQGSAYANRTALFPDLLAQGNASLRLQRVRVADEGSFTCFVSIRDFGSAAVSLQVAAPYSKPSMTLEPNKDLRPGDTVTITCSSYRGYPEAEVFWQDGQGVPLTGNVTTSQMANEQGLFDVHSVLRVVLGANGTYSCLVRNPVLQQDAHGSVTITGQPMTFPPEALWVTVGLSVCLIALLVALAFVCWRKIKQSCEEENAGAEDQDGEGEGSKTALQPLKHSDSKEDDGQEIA
# method_summary: cell ELISA on fixed MCF-7 cells (표 2)
parameter: EC50 (nM)

[[record]]
binder = "#3 항체 (B7-H3 항체) (antibody, V domains shown) VH: EVQLLESGGGLVQPGGSLRLSCAASGFTFSTYYMTWVRQAPGKGLEWVSIINPRGGSTSYAEKFQGRFTISRDNSKNTLYLQMNSLRAEDTAVYYCARWNLGMDVWGQGTLVTVSS VL: EIVLTQSPGTLSLSPGERATLSCRVSQSISSYLNWYQQKPGQAPRLLIYDASHRATGIPDRFSGSGSGTDFTLTISRLEPEDFAVYYCQQYYAPSVTFGQGTKVEIK"
parameter = "EC50"
experimental_value = 0.197

[[record]]
binder = "#8 항체 (B7-H3 항체) (antibody, V domains shown) VH: EVQLLESGGGLVQPGSSLRLSCAASGFTFSSYWISWVRQAPGKGLEWVSEISPSGNTNYNPSLKSRFTISRDNSKNTLYLQMNSLRAEDTAVYYCAREVGDLLDYWGQGTLVTVSS VL: QSVLTQPPSASGTPGQRVTISCSGSNIGNNYVSWYQQLPGTAPKLLIYQDSKRPSGVPDRFSGSKSGTSASLAISGLRSEDEADYYCLVWDRSSDHFVFGGGTKLTVL"
parameter = "EC50"
experimental_value = 0.159

[[record]]
binder = "#4 항체 (B7-H3 항체) (antibody, V domains shown) VH: EVQLLESGGGLVQPGGSLRLSCAASGFTFSSYGMHWVRQAPGKGLEWVSAISGSGTSIYYANSVKSRFTISRDNSKNTLYLQMNSLRAEDTAVYYCARGAGWFDYWGQGTLVTVSS VL: QSVLTQPPSASGTPGQRVTISCSGSTSNIGSNTVNWYQQLPGTAPKLLIYGKNIRPNGVPDRFSGSKSGTSASLAISGLHSEDEADYYCQSYDSSLSGWVFGGGTKLTVL"
parameter = "EC50"
experimental_value = 0.502

